# Tested on: Ser. marcescens IFO 12648
# assay_summary: MIC by agar dilution, Ser. marcescens IFO 12648
# Type: cell-based
# assay_setup: Serratia marcescens, IFO12648, 17 h; Ser. marcescens IFO 12648; agar dilution, Mueller-Hinton agar; read-out: Minimal Inhibitory Concentration (MIC)
Doc: threshold 0.03 µg/mL (exclusive). Items with MIC beneath it return satisfied; others return not satisfied.

• CO/N=C(\C(=O)N[C@@H]1C(=O)N2C(C(=O)[O-])=C(C[n+]3ccn4c(CO)ccc4c3C)CS[C@H]12)c1nc(N)sc1Cl = not satisfied
• CCON=C(C(=O)NC1C(=O)N2C(C(=O)[O-])=C(C[n+]3ccn4cccc4c3)CSC12)c1csc(N)n1 (stereo not drawn) = satisfied
• CO/N=C(\C(=O)N[C@@H]1C(=O)N2C(C(=O)[O-])=C(C[n+]3ccn4c(C#N)ccc4c3C)CS[C@H]12)c1csc(N)n1 = not satisfied
• CCON=C(C(=O)NC1C(=O)N2C(C(=O)[O-])=C(C[n+]3ccn4c(C(C)=O)ccc4c3)CSC12)c1csc(N)n1 (stereo not drawn) = not satisfied
• CCO/N=C(\C(=O)N[C@@H]1C(=O)N2C(C(=O)[O-])=C(C[n+]3cc(CC)n4cccc4c3)CS[C@H]12)c1csc(N)n1 = not satisfied
• Nc1nc(C(=NOCCF)C(=O)NC2C(=O)N3C(C(=O)[O-])=C(C[n+]4ccn5cccc5c4)CSC23)cs1 (stereo not drawn) = satisfied
• CON=C(C(=O)NC1C(=O)N2C(C(=O)[O-])=C(C[n+]3ccn4c(SCCN)ccc4c3)CSC12)c1csc(N)n1 (stereo not drawn) = satisfied
• CO/N=C(\C(=O)N[C@@H]1C(=O)N2C(C(=O)[O-])=C(C[n+]3ccn4ccc(CO)c4c3)CS[C@H]12)c1nsc(N)n1 = satisfied
• CC(C)(ON=C(C(=O)NC1C(=O)N2C(C(=O)[O-])=C(C[n+]3ccn4cccc4c3)CSC12)c1csc(N)n1)C(=O)O (stereo not drawn) = not satisfied
• CON=C(C(=O)NC1C(=O)N2C(C(=O)[O-])=C(C[n+]3ccn4c(C(N)=O)ccc4c3)CSC12)c1csc(N)n1 (stereo not drawn) = satisfied
• CO/N=C(\C(=O)N[C@@H]1C(=O)N2C(C(=O)O)=C(COC(C)=O)CS[C@H]12)c1csc(N)n1 [CTX, Cefotaxime, reference compound] = not satisfied
• CO/N=C(\C(=O)N[C@@H]1C(=O)N2C(C(=O)[O-])=C(C[n+]3ccn4c(Br)ccc4c3C)CS[C@H]12)c1nsc(N)n1 = satisfied
• CO/N=C(\C(=O)N[C@@H]1C(=O)N2C(C(=O)[O-])=C(C[n+]3ccn4c(CO)ccc4c3C)CS[C@H]12)c1csc(N)n1 = not satisfied
• CCON=C(C(=O)NC1C(=O)N2C(C(=O)[O-])=C(C[n+]3ccn4c(SCCN)ccc4c3)CSC12)c1csc(N)n1 (stereo not drawn) = not satisfied
• C#CCON=C(C(=O)NC1C(=O)N2C(C(=O)[O-])=C(C[n+]3ccn4cccc4c3)CSC12)c1csc(N)n1 (stereo not drawn) = not satisfied
• CON=C(C(=O)NC1C(=O)N2C(C(=O)[O-])=C(C[n+]3ccn4c(C(C)O)ccc4c3)CSC12)c1csc(N)n1 (stereo not drawn) = satisfied
• CO/N=C(\C(=O)N[C@@H]1C(=O)N2C(C(=O)[O-])=C(C[n+]3ccn4c(CO)ccc4c3)CS[C@H]12)c1nc(N)sc1Cl = not satisfied
• Nc1nc(C(=NOCC(=O)O)C(=O)NC2C(=O)N3C(C(=O)[O-])=C(C[n+]4ccn5c(CO)ccc5c4)CSC23)cs1 (stereo not drawn) = satisfied
• CCON=C(C(=O)NC1C(=O)N2C(C(=O)[O-])=C(C[n+]3ccn4ccc(CO)c4c3)CSC12)c1csc(N)n1 (stereo not drawn) = not satisfied
• CON=C(C(=O)NC1C(=O)N2C(C(=O)[O-])=C(C[n+]3ccn4c(C(C)=O)ccc4c3)CSC12)c1csc(N)n1 (stereo not drawn) = satisfied
• CCON=C(C(=O)NC1C(=O)N2C(C(=O)[O-])=C(C[n+]3ccn4c(C(N)=O)ccc4c3)CSC12)c1csc(N)n1 (stereo not drawn) = not satisfied
• CON=C(C(=O)NC1C(=O)N2C(C(=O)[O-])=C(C[n+]3ccn4c(Cl)ccc4c3)CSC12)c1csc(N)n1 (stereo not drawn) = satisfied
• CCc1c[n+](CC2=C(C(=O)[O-])N3C(=O)[C@@H](NC(=O)/C(=N\OC)c4csc(N)n4)[C@H]3SC2)cc2cccn12 = satisfied
• CO/N=C(\C(=O)N[C@@H]1C(=O)N2C(C(=O)[O-])=C(C[n+]3ccn4ccc(CO)c4c3)CS[C@H]12)c1nc(N)sc1Cl = not satisfied
• Nc1nc(/C(=N\O)C(=O)N[C@@H]2C(=O)N3C(C(=O)[O-])=C(C[n+]4ccn5cccc5c4)CS[C@H]23)cs1 = not satisfied
• CCON=C(C(=O)NC1C(=O)N2C(C(=O)[O-])=C(C[n+]3ccn4c(Cl)ccc4c3)CSC12)c1csc(N)n1 (stereo not drawn) = satisfied
• CON=C(C(=O)NC1C(=O)N2C(C(=O)[O-])=C(C[n+]3ccn4c(SCCO)ccc4c3)CSC12)c1csc(N)n1 (stereo not drawn) = satisfied
